The values you see were collected from patent US9518041B2.

- Protocol text: Solubility test in organic solvents (propylene glycol, butylene glycol)
- Assay type: physicochemical
- Measurement context: organic solvent or mixture, thermodynamic from solid, PG, 100 times amount of the test compound, visual observation after 24 hours at room temperature; read-out: Solubility in propylene glycol (PG), 100 times amount
Endpoint: solubility at 24 h

{"Compound": "Cc1cccn(CC2(c3ccc(F)c(F)c3)NC(=O)NC2=O)c1=O (racemic)", "Recorded result": "> 10000 µg/mL"}

* * *

Reported solubility at 2 h by item:
- Protocol text: Solubility test in the 2nd fluid for the disintegration test of the Japanese Pharmacopoeia
- Assay type: physicochemical
- Measurement context: pH 6.8, aqueous buffer, thermodynamic from solid; pH6.8, shaken for 2 hours

{"Compound": "Cc1cccn(CC2(c3ccc(F)c(F)c3)NC(=O)NC2=O)c1=O (racemic)", "solubility at 2 h [µg/mL]": 45}
{"Compound": "Cc1cccn(CC2(c3ccc(F)c(F)c3)NC(=O)NC2=O)c1=O (single isomer, unassigned; (+))", "solubility at 2 h [µg/mL]": 430}

* * *

- Protocol text: Solubility test in organic solvents (propylene glycol, butylene glycol)
- Format: physicochemical
- Measurement context: organic solvent or mixture, thermodynamic from solid, PG, 10 times amount of the test compound, visual observation after 24 hours at room temperature; read-out: Solubility in propylene glycol (PG), 10 times amount

{"Compound": "Cc1cccn(CC2(c3ccc(F)c(F)c3)NC(=O)NC2=O)c1=O (racemic)", "solubility at 24 h": "< 50 mg/mL"}

* * *

- Protocol text: Solubility test in organic solvents (propylene glycol, butylene glycol)
- Assay type: physicochemical
- Measurement context: organic solvent or mixture, thermodynamic from solid, PG, 20 times amount of the test compound, visual observation after 24 hours at room temperature; read-out: Solubility in propylene glycol (PG), 20 times amount

{"Compound": "Cc1cccn(CC2(c3ccc(F)c(F)c3)NC(=O)NC2=O)c1=O (racemic)", "solubility at 24 h": "< 50 mg/mL"}

* * *

- Protocol text: Solubility test in organic solvents (propylene glycol, butylene glycol)
- Type: physicochemical
- Measurement context: organic solvent or mixture, thermodynamic from solid
- Procedure: Under room temperature conditions, in a 0.5 mL polypropylene tube, (+)-5-(3,4-difluorophenyl)-5-[(3-methyl-2-oxopyridin-1(2H)-yl)methyl]imidazolidine-2,4-dione and (±)-5-(3,4-difluorophenyl)-5-[(3-methyl-2-oxopyridin-1(2H)-yl)methyl]imidazolidine-2,4-dione measured in advance for a suitable amount were prepared, respectively. […]

{"Compound": "Cc1cccn(CC2(c3ccc(F)c(F)c3)NC(=O)NC2=O)c1=O (single isomer, unassigned; (+))", "solubility at 24 h": "> 10000 µg/mL"}

* * *

- Target of assay: human MMP-14 (Homo sapiens)
- Construct: purchased Calbiochem 475935
- Protocol text: MMP-14 inhibition test
- Assay type: biochemical
- Measurement context: read-out: Inhibitory activity (IC50, nM) MMP-14
Endpoint: IC50

{"Compound": "Cc1cccn(CC2(c3ccc(F)c(F)c3)NC(=O)NC2=O)c1=O (single isomer, unassigned; (+))", "Target of assay": "human MMP-14 (Homo sapiens)", "Recorded result": "> 10000 nM"}

* * *

- Target of assay: human MMP-13 (Homo sapiens)
- Construct: purchased Calbiochem 444287
- Protocol text: MMP-13 inhibition test
- Format: biochemical
- Measurement context: read-out: Inhibitory activity (IC50, nM) MMP-13
- Protocol: MMP inhibition tests can be carried out, for example, using a fluorescent synthetic substrate based on the methods described in Bickett et al. (D. Mark Bickett et al., Anal. Biochem., 1993, 212, 58-64) and Nagase et al. (H. Nagase et al., J. Biol. Chem., 1994, 269, 20952-20957). The method for each MMP inhibition test is shown below. 90 μL (130 ng) of human MMP-13 (Calbiochem #444287) was mixed with 10 μL of 10 mM APMA, and activated by reacting at 37° C. for 1 hour. […]

{"Molecule": "Cc1cccn(CC2(c3ccc(F)c(F)c3)NC(=O)NC2=O)c1=O (single isomer, unassigned; (+))", "Target of assay": "human MMP-13 (Homo sapiens)", "IC50": "> 10000 nM"}
